Catalogue of compounds with associated Papp B→A
assay: Apparent permeability from basolateral to apical side of MDCK cells; assay type: ADME, cell-based, Canis lupus familiaris; conditions: dog
valueType: Papp B→A (×10⁻⁶ cm/s)

- compound: "CC(C)[C@]1(C(=O)N2C[C@@H]3C[C@H]2CN3C(=O)CCC(F)(F)F)CC[C@@H](NC2CCOCC2F)C1 (some centres not stated)"
  valueType: "Papp B→A"
  valueObserved: 5.3
- compound: "CC(CC(=O)N1C[C@@H]2C[C@H]1CN2C(=O)[C@@]1(C(C)C)CC[C@@H](NC2CCOCC2F)C1)C(F)(F)F (some centres not stated)"
  valueType: "Papp B→A"
  valueObserved: 10.2

* * *

Catalogue of compounds with associated inhibition at 10 µM
target: hERG (KCNH2) (Homo sapiens, UniProt Q12809); test: Displacement of dofetilide from human ERG at 10 uM; details: probe dofetilide
Sequence (Q12809 whole entry): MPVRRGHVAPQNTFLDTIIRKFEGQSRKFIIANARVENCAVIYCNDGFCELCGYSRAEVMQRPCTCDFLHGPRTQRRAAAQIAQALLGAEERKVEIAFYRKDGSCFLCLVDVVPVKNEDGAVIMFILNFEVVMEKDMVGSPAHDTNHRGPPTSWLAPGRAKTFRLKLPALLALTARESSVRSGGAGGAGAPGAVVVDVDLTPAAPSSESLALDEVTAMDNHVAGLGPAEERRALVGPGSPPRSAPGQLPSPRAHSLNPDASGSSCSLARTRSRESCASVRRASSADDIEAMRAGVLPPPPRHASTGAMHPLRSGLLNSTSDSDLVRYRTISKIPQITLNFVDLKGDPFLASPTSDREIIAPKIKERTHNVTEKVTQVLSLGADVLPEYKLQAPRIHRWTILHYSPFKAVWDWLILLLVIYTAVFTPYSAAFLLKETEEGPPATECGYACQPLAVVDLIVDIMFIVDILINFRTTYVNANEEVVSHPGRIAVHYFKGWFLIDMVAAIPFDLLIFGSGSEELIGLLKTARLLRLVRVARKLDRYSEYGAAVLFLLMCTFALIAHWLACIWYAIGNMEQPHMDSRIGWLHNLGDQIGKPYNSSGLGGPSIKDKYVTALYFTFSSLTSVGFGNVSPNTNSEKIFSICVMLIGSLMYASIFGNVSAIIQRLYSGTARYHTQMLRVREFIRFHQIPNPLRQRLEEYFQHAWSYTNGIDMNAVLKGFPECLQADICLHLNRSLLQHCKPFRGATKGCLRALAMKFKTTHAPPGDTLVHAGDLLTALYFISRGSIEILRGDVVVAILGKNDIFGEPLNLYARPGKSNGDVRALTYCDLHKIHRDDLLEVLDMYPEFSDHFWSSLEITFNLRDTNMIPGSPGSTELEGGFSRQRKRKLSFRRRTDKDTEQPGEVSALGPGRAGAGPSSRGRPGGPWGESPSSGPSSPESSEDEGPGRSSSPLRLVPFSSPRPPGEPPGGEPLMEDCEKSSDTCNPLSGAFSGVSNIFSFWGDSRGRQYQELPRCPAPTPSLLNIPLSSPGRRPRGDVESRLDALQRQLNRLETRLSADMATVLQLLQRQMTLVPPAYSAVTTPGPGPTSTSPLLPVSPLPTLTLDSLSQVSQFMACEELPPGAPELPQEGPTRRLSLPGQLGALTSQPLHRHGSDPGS

- compound: "CC(C)[C@]1(C(=O)N2C[C@@H]3C[C@H]2CN3C(=O)N2CCCCC2)CC[C@@H](NC2CCOCC2F)C1 (stereo not given in full)"
  targetSystem: "hERG (KCNH2) (Homo sapiens, UniProt Q12809)"
  inhibition at 10 µM / %: 0
- compound: "CC(C)C(=O)N1C[C@@H]2C[C@H]1CN2C(=O)[C@@]1(C(C)C)CC[C@@H](NC2CCOCC2)C1"
  targetSystem: "hERG (KCNH2) (Homo sapiens, UniProt Q12809)"
  inhibition at 10 µM / %: 3.7
- compound: "CC(C)[C@]1(C(=O)N2C[C@@H]3C[C@H]2CN3C(=O)C2CCC2)CC[C@@H](NC2CCOCC2)C1"
  targetSystem: "hERG (KCNH2) (Homo sapiens, UniProt Q12809)"
  inhibition at 10 µM / %: 6
- compound: "CC(C)[C@]1(C(=O)N2C[C@@H]3C[C@H]2CN3C(=O)C2CCCCC2)CC[C@@H](NC2CCOCC2)C1"
  targetSystem: "hERG (KCNH2) (Homo sapiens, UniProt Q12809)"
  inhibition at 10 µM / %: 4
- compound: "CC(C)[C@]1(C(=O)N2C[C@@H]3C[C@H]2CN3C(=O)CC(C)(C)C)CC[C@@H](NC2CCOCC2F)C1 (stereo not given in full)"
  targetSystem: "hERG (KCNH2) (Homo sapiens, UniProt Q12809)"
  inhibition at 10 µM / %: 0
- compound: "CCC(=O)N1C[C@@H]2C[C@H]1CN2C(=O)[C@@]1(C(C)C)CC[C@@H](NC2CCOCC2)C1"
  targetSystem: "hERG (KCNH2) (Homo sapiens, UniProt Q12809)"
  inhibition at 10 µM / %: 6
- compound: "CC(C)[C@]1(C(=O)N2C[C@@H]3C[C@H]2CN3C(=O)C2CCCCC2)CC[C@@H](NC2CCOCC2F)C1 (stereo not given in full)"
  targetSystem: "hERG (KCNH2) (Homo sapiens, UniProt Q12809)"
  inhibition at 10 µM / %: 0
- compound: "CC(C)[C@]1(C(=O)N2C[C@@H]3C[C@H]2CN3C(=O)OC2CCCC2)CC[C@@H](NC2CCOCC2F)C1 (stereo not given in full)"
  targetSystem: "hERG (KCNH2) (Homo sapiens, UniProt Q12809)"
  inhibition at 10 µM / %: 0
- compound: "CC(C)[C@]1(C(=O)N2C[C@@H]3C[C@H]2CN3C(=O)C2CC2)CC[C@@H](NC2CCOCC2)C1"
  targetSystem: "hERG (KCNH2) (Homo sapiens, UniProt Q12809)"
  inhibition at 10 µM / %: 2.3
- compound: "CC(C)[C@]1(C(=O)N2C[C@@H]3C[C@H]2CN3C(=O)OC(C)(C)C)CC[C@@H](NC2CCOCC2)C1"
  targetSystem: "hERG (KCNH2) (Homo sapiens, UniProt Q12809)"
  inhibition at 10 µM / %: 4.8
- compound: "CO[C@@H]1COCC[C@@H]1N[C@@H]1CC[C@@](C(=O)N2C[C@@H]3C[C@H]2CN3C(=O)C(C)(C)C)(C(C)C)C1"
  targetSystem: "hERG (KCNH2) (Homo sapiens, UniProt Q12809)"
  inhibition at 10 µM / %: 6
- compound: "CC(C)[C@]1(C(=O)N2C[C@@H]3C[C@H]2CN3C(=O)C2CCCC2)CC[C@@H](NC2CCOCC2)C1"
  targetSystem: "hERG (KCNH2) (Homo sapiens, UniProt Q12809)"
  inhibition at 10 µM / %: 2
- compound: "CC(C)[C@]1(C(=O)N2C[C@@H]3C[C@H]2CN3C(=O)C2CCOCC2)CC[C@@H](NC2CCOCC2)C1"
  targetSystem: "hERG (KCNH2) (Homo sapiens, UniProt Q12809)"
  inhibition at 10 µM / %: 0
- compound: "CC(CC(=O)N1C[C@@H]2C[C@H]1CN2C(=O)[C@@]1(C(C)C)CC[C@@H](NC2CCOCC2)C1)C(F)(F)F (stereo not given in full)"
  targetSystem: "hERG (KCNH2) (Homo sapiens, UniProt Q12809)"
  inhibition at 10 µM / %: 5
- compound: "CC(OC(=O)N1C[C@@H]2C[C@H]1CN2C(=O)[C@@]1(C(C)C)CC[C@@H](NC2CCOCC2)C1)C(F)(F)F (stereo not given in full)"
  targetSystem: "hERG (KCNH2) (Homo sapiens, UniProt Q12809)"
  inhibition at 10 µM / %: 2

* * *

target: C-C chemokine receptor type 2 (Homo sapiens, UniProt P41597); assay: Displacement of [125I]MCP1 from human CCR2 preincubated 30 mins by human whole cell binding assay
Sequence (P41597 whole entry): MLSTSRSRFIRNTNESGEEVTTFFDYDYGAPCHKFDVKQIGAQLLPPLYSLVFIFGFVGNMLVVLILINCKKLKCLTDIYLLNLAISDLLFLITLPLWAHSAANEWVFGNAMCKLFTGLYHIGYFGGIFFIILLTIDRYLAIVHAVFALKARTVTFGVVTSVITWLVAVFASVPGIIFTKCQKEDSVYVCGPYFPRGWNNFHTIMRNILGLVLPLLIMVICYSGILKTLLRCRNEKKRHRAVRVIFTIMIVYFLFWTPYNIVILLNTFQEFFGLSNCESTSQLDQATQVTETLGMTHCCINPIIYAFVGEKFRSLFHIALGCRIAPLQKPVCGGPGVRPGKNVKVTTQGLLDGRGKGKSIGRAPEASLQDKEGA
Catalogue of compounds with associated IC50
valueType: IC50 (nM)

- compound: "CO[C@@H]1COCC[C@@H]1N[C@@H]1CC[C@@](C(=O)N2C[C@@H]3C[C@H]2CN3C(=O)CC(C)(C)C)(C(C)C)C1"
  valueType: "IC50"
  valueObserved: 24.2
- compound: "CC(C)[C@]1(C(=O)N2C[C@@H]3C[C@H]2CN3C(=O)NC(C)(C)C)CC[C@@H](NC2CCOCC2F)C1 (some centres not stated)"
  valueType: "IC50"
  valueObserved: 28
- compound: "CC(C)[C@]1(C(=O)N2C[C@@H]3C[C@H]2CN3C(=O)C2CCCCC2)CC[C@@H](NC2CCOCC2F)C1 (some centres not stated)"
  valueType: "IC50"
  valueObserved: 15.2
- compound: "CC(C)[C@]1(C(=O)N2C[C@@H]3C[C@H]2CN3C(=O)CCC(F)(F)F)CC[C@@H](NC2CCOCC2F)C1 (some centres not stated)"
  valueType: "IC50"
  valueObserved: 17.3
- compound: "CC(CC(=O)N1C[C@@H]2C[C@H]1CN2C(=O)[C@@]1(C(C)C)CC[C@@H](NC2CCOCC2)C1)C(F)(F)F (some centres not stated)"
  valueType: "IC50"
  valueObserved: 13
- compound: "CC(C)[C@]1(C(=O)N2C[C@@H]3C[C@H]2CN3C(=O)C2CCCC2)CC[C@@H](NC2CCOCC2F)C1 (some centres not stated)"
  valueType: "IC50"
  valueObserved: 13.9
- compound: "CC(C)[C@]1(C(=O)N2C[C@@H]3C[C@H]2CN3C(=O)CCC(F)(F)F)CC[C@@H](NC2CCOCC2)C1"
  valueType: "IC50"
  valueObserved: 14.6

* * *

test: Apparent permeability from apical to basolateral side of MDCK cells; type: ADME, cell-based, Canis lupus familiaris; conditions: dog

- compound: "CC(CC(=O)N1C[C@@H]2C[C@H]1CN2C(=O)[C@@]1(C(C)C)CC[C@@H](NC2CCOCC2F)C1)C(F)(F)F (some centres not stated)"
  unitTag: "×10⁻⁶ cm/s"
  Papp A→B: 11.8
- compound: "CC(C)[C@]1(C(=O)N2C[C@@H]3C[C@H]2CN3C(=O)CCC(F)(F)F)CC[C@@H](NC2CCOCC2F)C1 (some centres not stated)"
  unitTag: "×10⁻⁶ cm/s"
  Papp A→B: 8.35

* * *

test: Half life in human liver microsomes at 1 uM; assay type: ADME, Microsome
Catalogue of compounds with associated half-life at 1 µM

- compound: "CC(OC(=O)N1C[C@@H]2C[C@H]1CN2C(=O)[C@@]1(C(C)C)CC[C@@H](NC2CCOCC2)C1)C(F)(F)F (stereo partly drawn)"
  half-life at 1 µM: "1.3 h"
- compound: "CO[C@@H]1COCC[C@@H]1N[C@@H]1CC[C@@](C(=O)N2C[C@@H]3C[C@H]2CN3C(=O)CC(C)(C)C)(C(C)C)C1"
  half-life at 1 µM: "> 2 h"
- compound: "CCC(=O)N1C[C@@H]2C[C@H]1CN2C(=O)[C@@]1(C(C)C)CC[C@@H](NC2CCOCC2)C1"
  half-life at 1 µM: "> 2 h"
- compound: "CO[C@@H]1COCC[C@@H]1N[C@@H]1CC[C@@](C(=O)N2C[C@@H]3C[C@H]2CN3C(=O)c2ccccc2)(C(C)C)C1"
  half-life at 1 µM: "1.57 h"
- compound: "CC(C)[C@]1(C(=O)N2C[C@@H]3C[C@H]2CN3C(=O)C2CCCCC2)CC[C@@H](NC2CCOCC2F)C1 (stereo partly drawn)"
  half-life at 1 µM: "0.917 h"
- compound: "CC(C)[C@]1(C(=O)N2C[C@@H]3C[C@H]2CN3C(=O)CCC(F)(F)F)CC[C@@H](NC2CCOCC2)C1"
  half-life at 1 µM: "> 2 h"
- compound: "CC(C)[C@]1(C(=O)N2C[C@@H]3C[C@H]2CN3C(=O)C2CCCCC2)CC[C@@H](NC2CCOCC2)C1"
  half-life at 1 µM: "1.55 h"
- compound: "CC(CC(=O)N1C[C@@H]2C[C@H]1CN2C(=O)[C@@]1(C(C)C)CC[C@@H](NC2CCOCC2F)C1)C(F)(F)F (stereo partly drawn)"
  half-life at 1 µM: "> 2 h"
- compound: "CC(C)[C@]1(C(=O)N2C[C@@H]3C[C@H]2CN3C(=O)CC(C)(C)C)CC[C@@H](NC2CCOCC2F)C1 (stereo partly drawn)"
  half-life at 1 µM: "1.27 h"
- compound: "CC(C)C(=O)N1C[C@@H]2C[C@H]1CN2C(=O)[C@@]1(C(C)C)CC[C@@H](NC2CCOCC2)C1"
  half-life at 1 µM: "> 2 h"
- compound: "CC(C)[C@]1(C(=O)N2C[C@@H]3C[C@H]2CN3C(=O)CC(C)(C)C)CC[C@@H](NC2CCOCC2)C1"
  half-life at 1 µM: "> 2 h"
- compound: "CO[C@@H]1COCC[C@@H]1N[C@@H]1CC[C@@](C(=O)N2C[C@@H]3C[C@H]2CN3C(=O)OC(C)(C)C)(C(C)C)C1"
  half-life at 1 µM: "> 2 h"
- compound: "CC(C)COC(=O)N1C[C@@H]2C[C@H]1CN2C(=O)[C@@]1(C(C)C)CC[C@@H](NC2CCOCC2F)C1 (stereo partly drawn)"
  half-life at 1 µM: "0.467 h"
- compound: "CC(C)[C@]1(C(=O)N2C[C@@H]3C[C@H]2CN3C(=O)OC2CCCC2)CC[C@@H](NC2CCOCC2F)C1 (stereo partly drawn)"
  half-life at 1 µM: "0.283 h"
- compound: "CC(C)[C@]1(C(=O)N2C[C@@H]3C[C@H]2CN3C(=O)CC2CCCC2)CC[C@@H](NC2CCOCC2F)C1 (stereo partly drawn)"
  half-life at 1 µM: "0.8 h"
- compound: "CC(C)[C@]1(C(=O)N2C[C@@H]3C[C@H]2CN3C(=O)C2CCOCC2)CC[C@@H](NC2CCOCC2)C1"
  half-life at 1 µM: "> 2 h"
- compound: "CC(C)[C@]1(C(=O)N2C[C@@H]3C[C@H]2CN3C(=O)C(C)(C)C)CC[C@@H](NC2CCOCC2)C1"
  half-life at 1 µM: "> 2 h"
- compound: "CC(C)[C@]1(C(=O)N2C[C@@H]3C[C@H]2CN3C(=O)C2CCCC2)CC[C@@H](NC2CCOCC2F)C1 (stereo partly drawn)"
  half-life at 1 µM: "> 2 h"
- compound: "CO[C@@H]1COCC[C@@H]1N[C@@H]1CC[C@@](C(=O)N2C[C@@H]3C[C@H]2CN3C(=O)C(C)(C)C)(C(C)C)C1"
  half-life at 1 µM: "> 2 h"
- compound: "CC(C)[C@]1(C(=O)N2C[C@@H]3C[C@H]2CN3C(=O)OC(C)(C)C)CC[C@@H](NC2CCOCC2F)C1 (stereo partly drawn)"
  half-life at 1 µM: "0.62 h"
- compound: "CC(=O)N1C[C@@H]2C[C@H]1CN2C(=O)[C@@]1(C(C)C)CC[C@@H](NC2CCOCC2)C1"
  half-life at 1 µM: "> 2 h"
- compound: "CC(CC(=O)N1C[C@@H]2C[C@H]1CN2C(=O)[C@@]1(C(C)C)CC[C@@H](NC2CCOCC2)C1)C(F)(F)F (stereo partly drawn)"
  half-life at 1 µM: "> 2 h"
- compound: "CC(C)[C@]1(C(=O)N2C[C@@H]3C[C@H]2CN3C(=O)NC(C)(C)C)CC[C@@H](NC2CCOCC2F)C1 (stereo partly drawn)"
  half-life at 1 µM: "1.77 h"
- compound: "CC(C)[C@]1(C(=O)N2C[C@@H]3C[C@H]2CN3C(=O)C2CCC2)CC[C@@H](NC2CCOCC2F)C1 (stereo partly drawn)"
  half-life at 1 µM: "0.35 h"
- compound: "CC(C)[C@]1(C(=O)N2C[C@@H]3C[C@H]2CN3C(=O)OC(C)(C)C)CC[C@@H](NC2CCOCC2)C1"
  half-life at 1 µM: "> 2 h"
- compound: "CO[C@@H]1COCC[C@@H]1N[C@@H]1CC[C@@](C(=O)N2C[C@@H]3C[C@H]2CN3C(=O)C2CCCC2)(C(C)C)C1"
  half-life at 1 µM: "> 2 h"
- compound: "CC(C)[C@]1(C(=O)N2C[C@@H]3C[C@H]2CN3C(=O)C2CCC2)CC[C@@H](NC2CCOCC2)C1"
  half-life at 1 µM: "> 2 h"
- compound: "CC(C)[C@]1(C(=O)N2C[C@@H]3C[C@H]2CN3C(=O)CCC(F)(F)F)CC[C@@H](NC2CCOCC2F)C1 (stereo partly drawn)"
  half-life at 1 µM: "> 2 h"
